System: Staphylococcus aureus (SA, MRSA)
protocolNotes: Single-point BisEDT-antibiotic combination FICI
Type: cell-based
testContext: SA 100
measureName: FICI, single-point BisEDT-antibiotic combination

Example results:
INSERT INTO results (mol, measured) VALUES
  ('CN(C)[C@@H]1C(O)=C(C(N)=O)C(=O)[C@@]2(O)C(O)=C3C(=O)c4c(O)cccc4[C@@](C)(O)[C@H]3C[C@@H]12', 0.89),
  ('C[C@@H](O)[C@H]1C(=O)N2C(C(=O)O)=C(SCCN=CN)C[C@H]12', 0.67),
  ('CCN1CCN(C(=O)N[C@@H](C(=O)N[C@@H]2C(=O)N3[C@@H]2SC(C)(C)[C@@H]3C(=O)O)c2ccccc2)C(=O)C1=O', 0.57);

Now for the molecule whose FICI, single-point BisEDT-antibiotic combination we want.
In: Dear colleague, please send me the reported FICI, single-point BisEDT-antibiotic combination for `CO/N=C(\C(=O)N[C@@H]1C(=O)N2C(C(=O)O)=C(COC(N)=O)CS[C@H]12)c1ccco1` when you can.
Out: 1.11

###

Tested on: Staphylococcus aureus (SA, MRSA)
protocolNotes: Single-point BisEDT-antibiotic combination FICI
Type: cell-based
testContext: MRSA 773
Known FICI, single-point BisEDT-antibiotic combination of a selection of molecules

Example results:
INSERT INTO results (mol, targetentity, measured) VALUES
  ('C[C@@H]1O[C@@H]1P(=O)(O)O', 'Staphylococcus aureus (SA, MRSA)', 0.61),
  ('CN(C)[C@@H]1C(O)=C(C(N)=O)C(=O)[C@@]2(O)C(O)=C3C(=O)c4c(O)cccc4[C@@](C)(O)[C@H]3C[C@@H]12', 'Staphylococcus aureus (SA, MRSA)', 1.23);

Now for the molecule whose FICI, single-point BisEDT-antibiotic combination we want.
In: Dear colleague, please send me the reported FICI, single-point BisEDT-antibiotic combination for `CO/N=C(\C(=O)N[C@@H]1C(=O)N2C(C(=O)O)=C(COC(C)=O)CS[C@H]12)c1csc(N)n1` when you can.
Out: 2.23

###

Tested on: S. epidermidis
protocolNotes: Broth dilution MIC/MBC, BT-antibiotic combinations
Format: cell-based, Staphylococcus epidermidis
testContext: S. epidermidis S2400-1; 0.1 μg/ml BisEDT
measureName: Δ (0.1 BE), MBC
Enter a number only.

INSERT INTO assay_data (mol, measured) VALUES
  ('CCC[C@@H]1C[C@@H](C(=O)N[C@@H]([C@H]2O[C@H](SC)[C@H](O)[C@@H](O)[C@H]2O)[C@H](C)Cl)N(C)C1', 2.67),
  ('CN[C@H](CC(C)C)C(=O)N[C@H]1C(=O)N[C@@H](CC(N)=O)C(=O)N[C@H]2C(=O)N[C@H]3C(=O)N[C@H](C(=O)N[C@H](C(=O)O)c4cc(O)cc(O)c4-c4cc3ccc4O)[C@H](O)c3ccc(c(Cl)c3)Oc3cc2cc(c3O[C@@H]2O[C@H](CO)[C@@H](O)[C@H](O)[C@H]2O[C@H]2C[C@](C)(N)[C@H](O)[C@H](C)O2)Oc2ccc(cc2Cl)[C@H]1O', 3.86);

In: Dear colleague, please send me the reported Δ (0.1 BE), MBC for `CN(C)c1ccc(O)c2c1C[C@H]1C[C@H]3[C@H](N(C)C)C(O)=C(C(N)=O)C(=O)[C@@]3(O)C(O)=C1C2=O` when you can.
Out: 1.00
